# credit: PubChem BioAssay AID1918949

tested on: K24384-001-R-PDC complex spheroid viability; assay: Anticancer human tumor K24384-001-R-PDC patient-derived pancreatic adenocarcinoma cell line growth inhibition; details: second compound 0.316 µM; first compound 0.03 µM; hits give low values;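 also: spheroids exposed to agents for seven days before luminescence viability reading; 100% = DMSO vehicle control viability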
quantity: viability, T/C (%)
Dear colleague, please return just the value in %, with no unit written.

compound	systemTested	quantity	recordedResult
COc1cc(C2c3cc4c(cc3C(OC3OC5COC(C)OC5C(O)C3O)C3COC(=O)C23)OCO4)cc(OC)c1O (centres undefined) + NC1CCC(NC2CC2c2ccccc2)CC1	K24384-001-R-PDC complex spheroid viability	viability, T/C	83.3
Nc1ccn(C2OC(CO)C(O)C2(F)F)c(=O)n1 (centres undefined) + NC1CC1c1ccc(-c2cccc(O)c2)cc1	K24384-001-R-PDC complex spheroid viability	viability, T/C	49.5
CCc1c2c(nc3ccc(O)cc13)-c1cc3c(c(=O)n1C2)COC(=O)[C@]3(O)CC + NC1CCC(NC2CC2c2ccccc2)CC1	K24384-001-R-PDC complex spheroid viability	viability, T/C	10.1

Next up:
Ask: If you can, please state the reported viability, T/C value of O=C(C=Cc1cccc(S(=O)(=O)Nc2ccccc2)c1)NO + NC1CCC(NC2CC2c2ccccc2)CC1 .
Reply: 107
